# target: T1, GST-PICK1 PDZ domain 1 (Bos taurus (Bovine)), Q2T9M1
# T1 chain: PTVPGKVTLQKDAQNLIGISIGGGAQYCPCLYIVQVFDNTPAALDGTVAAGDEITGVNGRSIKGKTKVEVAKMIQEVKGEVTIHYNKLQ
# procedure_details: G assay titration, PDZ 5 ug/ml
measure_name: Kd (nM)

| binder | measure_name | assay_result |
| --- | --- | --- |
| RELVDRGEVRQFTLRHWLKV (modifications not checked) [Dopamine transporter] | Kd | 900 |
| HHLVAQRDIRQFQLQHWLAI (modifications not checked) [noradrenaline transporter] | Kd | 1000 |
